Tested System: T1, HSV UL42 (processivity factor of HSV DNA polymerase) (herpes simplex virus (HSV), UniProt P10226 1-488)
T1 sequence: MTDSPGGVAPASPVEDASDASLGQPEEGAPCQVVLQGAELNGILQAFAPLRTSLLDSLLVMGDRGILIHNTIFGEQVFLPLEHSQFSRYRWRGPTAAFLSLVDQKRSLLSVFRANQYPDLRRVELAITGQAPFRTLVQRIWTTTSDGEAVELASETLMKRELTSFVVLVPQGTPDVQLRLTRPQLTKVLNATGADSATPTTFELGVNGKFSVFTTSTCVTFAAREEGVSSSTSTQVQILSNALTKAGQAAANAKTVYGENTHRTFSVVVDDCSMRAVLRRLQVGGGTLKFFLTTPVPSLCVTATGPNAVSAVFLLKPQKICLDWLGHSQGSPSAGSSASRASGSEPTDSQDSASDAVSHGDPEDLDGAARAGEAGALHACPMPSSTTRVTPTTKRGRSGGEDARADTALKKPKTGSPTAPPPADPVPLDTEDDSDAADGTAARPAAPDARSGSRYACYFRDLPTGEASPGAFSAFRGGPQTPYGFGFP
Assay Info: cell-based or functional assay
Quantity Measured: inhibition of long-chain DNA synthesis at 100 µM

## Input Entry under review: ATAEETRRMLHAAFDTLA [peptide E mutant R30A] . Reported inhibition of long-chain DNA synthesis at 100 µM?
## Output < 20 % inhibition at 100 µM

## Input Would you kindly repeat that for ATAEETRRMLHRAFDTAA [peptide E mutant L35A] ?
## Output 50 % inhibition at 100 µM

## Input Would you kindly repeat that for ATAAETRRMLHRAFDTLA [peptide E mutant E22A] ?
## Output < 20 % inhibition at 100 µM

## Input Would you kindly repeat that for ATAEETRRMLARAFDTLA [peptide E mutant H29A] ?
## Output < 20 % inhibition at 100 µM

## Input Would you kindly repeat that for AAAEETRRMLHRAFDTLA [peptide E mutant T20A] ?
## Output < 20 % inhibition at 100 µM

## Input Would you kindly repeat that for ATAEETRRMLHRAADTLA [peptide E mutant F32A] ?
## Output < 20 % inhibition at 100 µM

## Input Would you kindly repeat that for ATAEETRRALHRAFDTLA [peptide E mutant M27A] ?
## Output 40 % inhibition at 100 µM
